Give measured remaining at 0.5 h for each item. Keep answers brief.
# Assay Method Text: Microsomal stability in human liver microsomes assessed as parent compound remaining after 30 mins in presence of NADPH by LC -MS/MS analysis
# Assay type: ADME, Microsome
# Setup Conditions: read-out: Stability
Field: numeric (%). Do not append units.

Problem: Entry under review: CCc1c(C(=O)N[C@@H](CCC2CC2)C(=O)Nc2ccc(C#N)cc2)[nH]c2c1C(=O)CC(C)(C)C2 . Reported remaining at 0.5 h?
Result: 51.9

Problem: Any idea what its remaining at 0.5 h is? The compound is CCCCC(NC(=O)c1[nH]c2c(c1C)C(=O)CC(C)(C)C2)C(=O)Nc1ccccc1C#N (racemic)
Result: 40.8

Problem: Need remaining at 0.5 h, item CCCCC(NC(=O)c1[nH]c2c(c1C)C(=O)CC(C)(C)C2)C(=O)Nc1ccc(C#N)cc1 (racemic)
Result: 89.5

Problem: So what's the measured remaining at 0.5 h for this one? CCCCC(NC(=O)c1[nH]c2c(c1C)C(=O)CC(C)(C)C2)C(=O)NC1CCCCC1 (racemic)
Result: 1.2

Problem: Need remaining at 0.5 h, item CC(C)c1c(C(=O)N[C@@H](CCC2CC2)C(=O)Nc2ccc(C#N)cc2)[nH]c2c1C(=O)CC(C)(C)C2
Result: 1.8

Problem: Tell me the measured remaining at 0.5 h of CCCCNC(=O)C(CCCC)NC(=O)c1[nH]c2c(c1C)C(=O)CC(C)(C)C2 (racemic) , please.
Result: 30.6

Problem: Tell me the measured remaining at 0.5 h of CCCCC(NC(=O)c1[nH]c2c(c1C)C(=O)CC(C)(C)C2)C(=O)Nc1ccc(C(N)=O)cc1 (racemic) , please.
Result: 90.9

Problem: So what's the measured remaining at 0.5 h for this one? CCCCC(NC(=O)c1[nH]c2c(c1C)C(=O)CC(C)(C)C2)C(=O)Nc1ccc(F)cc1 (racemic)
Result: 83.8

Problem: What does the record list as remaining at 0.5 h for COc1cc2c(NC3CCN(C(C)C)CC3)nc(C3CCCCC3)nc2cc1OCCCN1CCCC1 ?
Result: 89.7

Problem: Endpoint output: remaining at 0.5 h of Cc1c(C(=O)N[C@@H](CCC2CC2)C(=O)Nc2ccccc2)[nH]c2c1C(=O)CC(C)(C)C2 . Value?
Result: 36.5

Problem: Name the recorded remaining at 0.5 h for CCCCC(NC(=O)c1[nH]c2c(c1C)C(=O)CC(C)(C)C2)C(=O)Nc1cccnc1 (racemic) .
Result: 32.4

Problem: remaining at 0.5 h for Cc1c(C(=O)N[C@@H](CCC2CC2)C(=O)Nc2ccc(C#N)cc2)[nH]c2c1C(=O)CC(C)(C)C2 ?
Result: 55.5

Problem: Query (compound): CCCCC(NC(=O)c1[nH]c2c(c1C)C(=O)CC(C)(C)C2)C(=O)Nc1ccccc1Cl (racemic) ; field requested: remaining at 0.5 h
Result: 30

Problem: Item CCCCC(NC(=O)c1[nH]c2c(c1C)C(=O)CC(C)(C)C2)C(=O)Nc1ccccn1 (racemic) has what recorded remaining at 0.5 h?
Result: 68.8

Problem: Could you share which remaining at 0.5 h value was measured for CCCCC(NC(=O)c1[nH]c2c(c1C)C(=O)CC(C)(C)C2)C(=O)Nc1ccccc1 (racemic) ?
Result: 77.8
